experimental_system: Human IP6K1 (Homo sapiens)
Construct: GST (N, cleaved yes); made in house; host or cells: C43 E. coli, pGEX-6P-2
Sequence (Q92551 whole entry): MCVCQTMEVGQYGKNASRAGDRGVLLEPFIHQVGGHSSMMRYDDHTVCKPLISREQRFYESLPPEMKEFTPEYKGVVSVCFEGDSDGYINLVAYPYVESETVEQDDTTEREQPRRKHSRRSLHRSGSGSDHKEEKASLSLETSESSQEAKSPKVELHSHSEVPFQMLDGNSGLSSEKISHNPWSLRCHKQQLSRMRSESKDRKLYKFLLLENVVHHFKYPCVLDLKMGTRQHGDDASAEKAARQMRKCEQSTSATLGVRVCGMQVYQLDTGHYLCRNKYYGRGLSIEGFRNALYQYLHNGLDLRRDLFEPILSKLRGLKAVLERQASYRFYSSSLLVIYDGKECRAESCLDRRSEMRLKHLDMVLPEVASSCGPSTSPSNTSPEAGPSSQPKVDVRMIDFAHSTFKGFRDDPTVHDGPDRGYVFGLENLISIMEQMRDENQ
test: IP6K1 high-throughput screen of the Sigma LOPAC (ADP-Glo Max, single point);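 also: final compound concentration 10µM in 5% DMSO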
Type: biochemical
measurement_parameters: LOPAC single-point screen; Z-score from raw signal with plate average and StDev
Counter-ions that a name gives are not always drawn.
assay_endpoint: Z-score

Previously resolved entries follow.
Enquiry: Which Z-score reading was recorded for the molecule CCSC(=N)Nc1ccc(C(F)(F)F)cc1.Cl [TFPI hydrochloride] ?
Return: -0.4076

Enquiry: Dear colleague, I am looking for the recorded Z-score of the following molecule: N=C(N)NC(CCC(=O)O)C(=O)O (stereo not drawn)
Return: -0.2265

Enquiry: Name the reported Z-score value associated with the molecule NCCS(=O)O
Return: -0.3337

Enquiry: Give the measured Z-score of CC(C)(C)NCC(O)c1ccccc1Cl (stereo not drawn) [Tulobuterol hydrochloride] .
Return: -0.3343

Next:
Enquiry: Entry CC(=O)C(C)=O : reported Z-score = ?
Return: -0.3505

Enquiry: Entry Br.C[N+](C)(C)CCCCCNCC12CC3CC(CC(C3)C1)C2.[Br-] : reported Z-score = ?
Return: -0.404
